Test system: E. coli (KpC1812446)
Test: microbe, parasite or virus in culture
Details: Escherichia coli
List of MIC values.
Measurement Kind: MIC

O=C(N[C@H](CO)[C@H](O)c1ccc([N+](=O)[O-])cc1)C(Cl)Cl: > 198 µM
COc1cc(Cc2cnc(N)nc2N)cc(OC)c1OC: > 220 µM
CC1(C)S[C@@H]2[C@H](NC(=O)[C@H](N)c3ccccc3)C(=O)N2[C@H]1C(=O)O: > 183 µM

Values from patent US20260226105A1
